The measured values listed here are drawn from patent US4070469A.

Test: Residue of active compound in milk of the cow
Format: in vivo
Details: bovine, milk; 24 hrs; 500 mg in 7 ml P.E.G. base
property: concentration at 24 h (ng/mL)

| compound | value-measured |
| --- | --- |
| O=C(O)c1cc(-c2ccc([N+](=O)[O-])o2)c2ccccc2[n+]1[O-] [Compound 1] | 9800 |
| CCOc1ccc2c(-c3ccc([N+](=O)[O-])o3)cc(C(=O)O)[n+]([O-])c2c1 [Compound 26] | 12000 |
| Cc1cc(-c2ccc([N+](=O)[O-])o2)c2ccc(O)cc2[n+]1[O-] [Compound 22] | 20000 |
| COc1ccc2c(-c3ccc([N+](=O)[O-])o3)cc[n+]([O-])c2c1 [Compound 19] | 26500 |

* * *

Test system: Strep.uberis
Test: Minimal bactericidal activity (MBC) in milk, field isolates
Format: cell-based
Conditions: Streptococcus uberis; in milk at pH 7.2 - 7.4; field isolate 60B; read-out: Minimal Bactericidal Activity (MBC), Strep.uberis 60B
Examples of compounds with documented MBC follow.

| compound | MBC |
| --- | --- |
| O=C(N[C@H](CO)[C@H](O)c1ccc([N+](=O)[O-])cc1)C(Cl)Cl [Chloramphenicol, reference compound] | 50 mg/L |
| COc1ccc2c(-c3ccc([N+](=O)[O-])o3)cc[n+]([O-])c2c1 [Compound 19] | 0.12 mg/L |
| CCc1cc(-c2ccc([N+](=O)[O-])o2)c2cc(C)ccc2n1 [Compound 12] | > 10 mg/L |
| O=[N+]([O-])c1ccc(-c2cc(C(Br)(Br)Br)nc3ccccc23)o1 [Compound 14] | 5 mg/L |
| O=[N+]([O-])c1ccc(-c2cc[n+]([O-])c3ccccc23)o1 [Compound 41] | 5 mg/L |
| CCc1cccc2c(-c3ccc([N+](=O)[O-])o3)cc(C)nc12 [Compound 10] | > 10 mg/L |
| COc1ccc2c(-c3ccc([N+](=O)[O-])o3)cc(C(=O)O)[n+]([O-])c2c1 [Compound 25] | 0.25 mg/L |
| CCc1cc(-c2ccc([N+](=O)[O-])o2)c2ccccc2[n+]1[O-] [Compound 30] | 5 mg/L |
| CC[C@H]1OC(=O)[C@H](C)[C@@H](O[C@H]2C[C@@](C)(OC)[C@@H](O)[C@H](C)O2)[C@H](C)[C@@H](O[C@@H]2O[C@H](C)C[C@H](N(C)C)[C@H]2O)[C@](C)(O)C[C@@H](C)C(=O)[C@H](C)[C@@H](O)[C@]1(C)O [Erythremycin, reference compound] | 0.39 mg/L |
| CC1(C)S[C@@H]2[C@H](NC(=O)Cc3ccccc3)C(=O)N2[C@H]1C(=O)O [Penicillin G, reference compound] | 0.06 mg/L |
| Cc1cc(-c2ccc([N+](=O)[O-])o2)c2ccc(N)c(C)c2n1 [Compound 35] | 5 mg/L |
| CC(=O)OCc1cc(-c2ccc([N+](=O)[O-])o2)c2ccccc2n1 [Compound 33] | > 10 mg/L |
| CCc1ccc2nc(C)cc(-c3ccc([N+](=O)[O-])o3)c2c1 [Compound 7] | > 10 mg/L |

* * *

Assay: LD50 mice
Settings: mouse, in vivo

| compound | value-units | LD50 |
| --- | --- | --- |
| O=C(O)c1cc(-c2ccc([N+](=O)[O-])o2)c2ccccc2[n+]1[O-] [Compound 1] | mg/kg | 3000 |

* * *

Some compounds, each annotated with its measured MBC.
Tested on: Strep.uberis
Assay: Minimal bactericidal activity (MBC) in milk, field isolates
Type: cell-based
Settings: Streptococcus uberis; in milk at pH 7.2 - 7.4; field isolate 60B; read-out: Minimal Bactericidal Activity (MBC), Strep.uberis 60B
Excerpt: The activity of some of said nitrofuryl quinolines derivatives against Strep.uberis and Stap.Aureus in milk has been compared with the activity of some of the compounds so far utilised in the treatment of bovine mastitis. The results are shown in Table I. (The nitrofuryl quinoline derivatives have general formula [drawing 1] the meaning of R, A, R', B, Y, X and Z being given in the Table. R1 =O whenever indicated then the N-oxide is concerned; NF stands for nitrofuryl) […]
property: MBC (mg/L)

| smiles-text | value-units | comparison-symbol | value-measured |
| --- | --- | --- | --- |
| COc1ccc2c(-c3ccc([N+](=O)[O-])o3)cc(C)[n+]([O-])c2c1 | mg/L | = | 5 |
| O=C(O)c1cc(-c2ccc([N+](=O)[O-])o2)c2ccccc2n1 | mg/L | = | 0.12 |
| Cc1ccc2nc(C)cc(-c3ccc([N+](=O)[O-])o3)c2c1 | mg/L | = | 10 |
| Cc1cc(-c2ccc([N+](=O)[O-])o2)[n+]([O-])c2ccccc12 | mg/L | > | 10 |
| CCCOc1ccc2c(-c3ccc([N+](=O)[O-])o3)cc(C)[n+]([O-])c2c1 | mg/L | = | 5 |
| CCc1cc(-c2ccc([N+](=O)[O-])o2)c2cc(C)c(C)cc2[n+]1[O-] | mg/L | = | 5 |
| Cc1ccc2c(-c3ccc([N+](=O)[O-])o3)cc(C)[n+]([O-])c2c1 | mg/L | = | 5 |
| CCOc1ccc2c(-c3ccc([N+](=O)[O-])o3)cc(C(=O)O)nc2c1 | mg/L | = | 0.03 |
| O=[N+]([O-])c1ccc(-c2ccnc3ccccc23)o1 | mg/L | = | 10 |
| COc1cc2c(-c3ccc([N+](=O)[O-])o3)cc(C)[n+]([O-])c2cc1OC | mg/L | = | 0.25 |
| CCc1ccc2nc(CC)cc(-c3ccc([N+](=O)[O-])o3)c2c1 | mg/L | > | 10 |
| Cc1cc(-c2ccc([N+](=O)[O-])o2)c2ccc(O)cc2[n+]1[O-] | mg/L | = | 0.12 |
| COc1cc2nc(C)cc(-c3ccc([N+](=O)[O-])o3)c2cc1OC | mg/L | = | 5 |
| CCOc1ccc2c(-c3ccc([N+](=O)[O-])o3)cc(C(=O)O)[n+]([O-])c2c1 | mg/L | = | 0.03 |
| CCc1cc(-c2ccc([N+](=O)[O-])o2)c2ccc(OC)cc2[n+]1[O-] | mg/L | > | 10 |
| CCc1ccc2c(c1)c(-c1ccc([N+](=O)[O-])o1)cc(C)[n+]2[O-] | mg/L | > | 10 |
| Cc1cc(-c2ccc([N+](=O)[O-])o2)c2ccccc2[n+]1[O-] | mg/L | = | 5 |

* * *

Experiment: LD50 rats
Conditions: rat, in vivo
property: LD50 (mg/kg)

| smiles-text | value-units | value-measured |
| --- | --- | --- |
| O=C(O)c1cc(-c2ccc([N+](=O)[O-])o2)c2ccccc2[n+]1[O-] | mg/kg | 1600 |
